Hey, just so you know, these numbers are from the supplement of paper PMC10567573.

B1: HMOX1 (parent)
chain: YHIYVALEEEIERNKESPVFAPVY

Variants of: B1
Test: protein stability index of a GFP-peptide fusion (GPS, HEK-293T) (PSI 1-6); higher = more stable;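 note: lentivirally expressed fusions sorted by FACS into six bins by GFP to DsRed ratio, PSI derived from sequencing read proportions per bin multiplied by bin number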
Settings: c terminus: a fixed tail appended
Lab note: anything with protein stability index at or over 2 counts as True; the rest go in False.

>  <construct.sequence>
YHIYDALEEEIERNKESPVFAPVY [V5D]

>  <label.class>
True

$$$$
>  <construct.sequence>
YHIYVALEEEIERQKESPVFAPVY [N14Q]

>  <label.class>
True

$$$$
>  <construct.sequence>
YHIYVALEETIERNKESPVFAPVY [E10T]

>  <label.class>
True

$$$$
>  <construct.sequence>
YHIYVALPEEIERNKESPVFAPVY [E8P]

>  <label.class>
True

$$$$
>  <construct.sequence>
YHIYVALEEEIERNKESGVFAPVY [P18G]

>  <label.class>
True

$$$$
>  <construct.sequence>
YHIYVALEEEIERNKESPWFAPVY [V19W]

>  <label.class>
False

$$$$
>  <construct.sequence>
YHIYVALEEEIERNKEIPVFAPVY [S17I]

>  <label.class>
True

$$$$
>  <construct.sequence>
YHIYVALEEEIERNKESPVFAAVY [P22A]

>  <label.class>
True

$$$$
>  <construct.sequence>
YHIYVALEEEIDRNKESPVFAPVY [E12D]

>  <label.class>
False

$$$$
>  <construct.sequence>
YHIYVALEEEIERNKESPVFAPVR [Y24R]

>  <label.class>
True

$$$$
>  <construct.sequence>
YHIYVALEEEIERNKEEPVFAPVY [S17E]

>  <label.class>
False

$$$$
>  <construct.sequence>
YHIYVALEEEIERNKESPVFAPVC [Y24C]

>  <label.class>
True

$$$$
>  <construct.sequence>
YHIYVALEEEPERNKESPVFAPVY [I11P]

>  <label.class>
True

$$$$
>  <construct.sequence>
YHIYVALEEEIERNAESPVFAPVY [K15A]

>  <label.class>
True

$$$$
>  <construct.sequence>
YHIYVALEEEIERNKESPVWAPVY [F20W]

>  <label.class>
True

$$$$
>  <construct.sequence>
YHIYVALEEEIERNKESPVFAPWY [V23W]

>  <label.class>
True

$$$$
>  <construct.sequence>
YHIYVALEEETERNKESPVFAPVY [I11T]

>  <label.class>
False

$$$$
>  <construct.sequence>
YHIYVLLEEEIERNKESPVFAPVY [A6L]

>  <label.class>
True

$$$$
>  <construct.sequence>
YKIYVALEEEIERNKESPVFAPVY [H2K]

>  <label.class>
True

$$$$
>  <construct.sequence>
YHIYVALEEEIERNKESPVNAPVY [F20N]

>  <label.class>
True

$$$$
>  <construct.sequence>
YHIYVALEEEIERNKEKPVFAPVY [S17K]

>  <label.class>
True

$$$$
